target.or.test.system: Ubiquitin carboxyl-terminal hydrolase 28 (Homo sapiens) (UniProt Q96RU2)
Sequence (Q96RU2 whole entry, looked up): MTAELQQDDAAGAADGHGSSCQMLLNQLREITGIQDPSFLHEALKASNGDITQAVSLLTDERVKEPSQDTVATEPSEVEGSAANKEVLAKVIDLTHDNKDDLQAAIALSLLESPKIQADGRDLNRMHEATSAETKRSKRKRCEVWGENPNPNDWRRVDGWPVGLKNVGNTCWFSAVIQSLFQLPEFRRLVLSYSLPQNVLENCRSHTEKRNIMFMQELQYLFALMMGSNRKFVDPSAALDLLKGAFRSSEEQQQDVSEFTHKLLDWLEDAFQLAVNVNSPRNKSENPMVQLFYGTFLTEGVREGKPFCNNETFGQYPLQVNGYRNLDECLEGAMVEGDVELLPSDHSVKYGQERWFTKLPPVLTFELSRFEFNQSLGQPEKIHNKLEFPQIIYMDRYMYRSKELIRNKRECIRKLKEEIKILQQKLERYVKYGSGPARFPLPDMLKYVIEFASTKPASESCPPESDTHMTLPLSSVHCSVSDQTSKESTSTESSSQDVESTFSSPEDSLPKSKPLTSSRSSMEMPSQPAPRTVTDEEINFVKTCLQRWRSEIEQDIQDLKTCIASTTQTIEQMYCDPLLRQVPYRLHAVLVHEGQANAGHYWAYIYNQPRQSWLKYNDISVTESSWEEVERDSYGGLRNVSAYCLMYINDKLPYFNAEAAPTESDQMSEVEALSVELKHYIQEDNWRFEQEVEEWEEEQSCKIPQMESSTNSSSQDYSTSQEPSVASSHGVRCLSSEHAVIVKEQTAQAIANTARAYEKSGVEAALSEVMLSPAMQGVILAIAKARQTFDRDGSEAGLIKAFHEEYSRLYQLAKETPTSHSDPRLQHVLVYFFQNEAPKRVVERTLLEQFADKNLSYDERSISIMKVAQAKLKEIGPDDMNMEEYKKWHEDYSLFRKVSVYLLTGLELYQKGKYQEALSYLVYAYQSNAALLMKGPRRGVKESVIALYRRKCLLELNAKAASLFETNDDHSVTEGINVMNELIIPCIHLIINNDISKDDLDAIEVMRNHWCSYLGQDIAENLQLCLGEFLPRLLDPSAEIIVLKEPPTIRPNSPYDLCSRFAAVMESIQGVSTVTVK
protocol: inhibitors of human USP28 deubiquitinase (AID 1645857)
experimental.conditions: purified USP28, Ub-rhodamine cleavage fluorescence, 30 min; at 25 µM; active compounds read high
Among all 47,000 compounds or so, about 1,400 (3%) were called active. The sample holds actives, similar compounds and a random draw of the others, so the mix is not that of the screen.
measured.quantity: inhibition (%)
Quick reminder: number only, in %, skip the unit.

CSc1ncccc1C(=O)OCc1ccc(Br)cc1
76.8
O=C1NC2(CCCc3ccccc32)C(=O)N1Cc1csc(-c2ccc(Cl)cc2)n1 (stereo not drawn)
2.68
O=C(c1ccc(N2CCCC2)nn1)N1CCN(c2ccccn2)CC1
2.13
CSc1ncccc1C(=O)Nc1ccnn1C(C)c1ccncc1 (stereo not drawn)
-28.1
Clc1cc2nc(N3CCN(c4ccccn4)CC3)c3nncn3c2cc1Cl
36.5
CC1CCN(S(=O)(=O)N2CCCC(C(=O)Nc3ccccc3Cl)C2)CC1 (stereo not drawn)
-2.94
CN1CCc2onc(-c3cccc(CN)c3)c2C1=O
11.5
Cc1ccccc1NC(=O)c1ccc(-c2nc3cccnc3n(C3CCCC3)c2=O)cc1
-11.7
Cc1ccc(Cn2c(C(=O)O)c(CNC(C)CCc3ccccc3)c3ccccc32)cc1 (stereo not drawn)
32.3
O=C(COc1ccccc1)Nc1cnc(-c2cccc(Cl)c2)nc1
0.526

Proceed to the following item.
Suppose we examine the compound `CC(=O)Nc1cccnc1-c1ccc(C(=O)Nc2ccc(C)c(C)c2)cc1` ; what inhibition value has been reported?
37.1
